# Target under test: T1, C-terminal fragment of CD92 (FNfn10 cleaved in the CD loop) (human, UniProt P02751 1578-1631)
# T1 construct: Start at residue 43 is inferred from the N-terminal fragment ending at Asn42
# T1 sequence (P02751 other isoform, or with tags, fused parts or gaps): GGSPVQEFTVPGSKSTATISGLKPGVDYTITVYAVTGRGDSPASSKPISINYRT
# Experiment summary: Trp fluorescence titrations, extrapolated to no urea, 750 mM glycerol
Square brackets hold non-standard residues; d marks the D form. Ends that are not written are not given here. * marks the point of attachment. hSer(lactone) = O=C1OCC[C@@H]1N*
Metric: Kd

Suppose we examine the binder VSDVPRKLQVVAATPTSLLISWDAPAVTVRYYRITYGETGGNGG[hSer(lactone)] (other, not fully specified, also called mutant CD-loop fragment) ; what Kd value has been reported?
~1.5 nM
